# EXPERIMENTAL SYSTEM: LK35.2-hPD-L1 cells / PE-labeled PD-1-Ig (Homo sapiens, UniProt Q9NZQ7)
# Construct: expressed in transfected cells; host or cells: LK35.2 mouse B cell line
# Sequence (Q9NZQ7 19-290): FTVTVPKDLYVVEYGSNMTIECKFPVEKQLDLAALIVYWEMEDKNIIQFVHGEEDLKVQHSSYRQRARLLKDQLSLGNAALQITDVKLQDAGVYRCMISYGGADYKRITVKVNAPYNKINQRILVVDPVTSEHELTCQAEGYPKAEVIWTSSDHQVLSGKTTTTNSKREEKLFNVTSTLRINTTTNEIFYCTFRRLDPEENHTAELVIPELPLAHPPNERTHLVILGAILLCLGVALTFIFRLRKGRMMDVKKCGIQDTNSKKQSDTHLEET
# ASSAY REMARKS: LK35.2-hPD-L1 cell binding high-content screening assay
# Assay type: cell-based
# CONDITION DESCRIPTION: cell binding assay, cell line not given; cluster symbol; read-out: CBA IC50 cluster
pIC50: −log10 of the molar value. Positions of bridges follow the written chain, without caps; N, C: chain ends. Non-standard residues stand in square brackets, D forms with d. Residues, ends and D or L forms follow the SMILES beside them. ξ: configuration not given here. Phe(4-F) = N[C@@H](Cc1ccc(F)cc1)C(=O)O; 2Nal = N[C@@H](Cc1ccc2ccccc2c1)C(=O)O; Bta = N[C@@H](Cc1csc2ccccc12)C(=O)O; NMeF = CN[C@@H](Cc1ccccc1)C(=O)O; NMeNle = CCCC[C@H](NC)C(=O)O; NMeS = CN[C@@H](CO)C(=O)O; NMeA = CN[C@@H](C)C(=O)O; ξC = NC(CS)C(=O)O; Sar = CNCC(=O)O
MEASURED ENDPOINT: pIC50

What does the record list as pIC50 for CCCC[C@H]1C(=O)N(C)CC(=O)N[C@@H](CC(=O)O)C(=O)N[C@@H](C(C)C)C(=O)N(C)[C@@H](Cc2ccccc2)C(=O)N[C@@H](Cc2ccc(O)cc2)C(=O)N(C)CC(=O)N[C@@H](Cc2c[nH]c3ccccc23)C(=O)N[C@@H](Cc2ccc(O)cc2)C(=O)N[C@@H](CC(C)C)C(=O)N[C@H](C(=O)NCC(N)=O)CSCC(=O)N[C@@H](Cc2ccc(F)cc2)C(=O)N(C)[C@@H](Cc2ccccc2)C(=O)N1C [Example 3520] ({CH2CO}-[Phe(4-F)][NMeF][NMeNle][Sar]DV[NMeF]Y[Sar]WYLCG-NH2; thioether N-13) ? 8.33 to 9.80

Any idea what its pIC50 is? The compound is CCCC[C@H]1C(=O)N(C)[C@@H](C)C(=O)N[C@@H](CCCNC(=N)N)C(=O)NC(C(=O)NCC(N)=O)CSCC(=O)N[C@@H](Cc2ccc(O)cc2)C(=O)N(C)[C@@H](C)C(=O)N[C@@H](CC(N)=O)C(=O)N2CCC[C@H]2C(=O)N[C@@H](CO)C(=O)N[C@@H](CC(C)C)C(=O)N2CCC[C@H]2C(=O)N[C@@H](Cc2c[nH]c3ccccc23)C(=O)N[C@@H](CO)C(=O)N[C@@H](Cc2csc3ccccc23)C(=O)N1C (stereo partly shown) [Example 9111] ({CH2CO}-Y[NMeA]NPSLPWS[Bta][NMeNle][NMeA]R[ξC]G-NH2; thioether N-14) 7.14 to 8.32

pIC50 for CCCC[C@H]1C(=O)N(C)[C@@H](CO)C(=O)N[C@@H](CCCNC(=N)N)C(=O)NC(C(=O)NCC(N)=O)CSCC(=O)N[C@@H](Cc2ccc(O)cc2)C(=O)N(C)[C@@H](C)C(=O)N[C@@H](CC(N)=O)C(=O)N2CCC[C@H]2C(=O)N[C@@H](Cc2cnc[nH]2)C(=O)N[C@@H](CC(C)C)C(=O)N2CCC[C@H]2C(=O)N[C@@H](Cc2c[nH]c3ccccc23)C(=O)N[C@@H](CO)C(=O)N[C@@H](Cc2c[nH]c3ccccc23)C(=O)N1C (stereo partly shown) [Example 9032] ({CH2CO}-Y[NMeA]NPHLPWSW[NMeNle][NMeS]R[ξC]G-NH2; thioether N-14) ? 7.14 to 8.32

Entry under review: CCCC[C@H]1C(=O)N(C)CC(=O)N[C@@H](CC(=O)O)C(=O)N[C@@H](C(C)C)C(=O)N(C)[C@@H](Cc2ccccc2)C(=O)N[C@@H](Cc2ccc(O)cc2)C(=O)N(C)CC(=O)N[C@@H](Cc2c[nH]c3ccccc23)C(=O)N[C@@H](Cc2ccc3ccccc3c2)C(=O)N[C@@H](CC(C)C)C(=O)N[C@H](C(=O)NCC(N)=O)CSCC(=O)N[C@@H](Cc2ccccc2)C(=O)N(C)[C@@H](Cc2ccccc2)C(=O)N1C [Example 3538] ({CH2CO}-F[NMeF][NMeNle][Sar]DV[NMeF]Y[Sar]W[2Nal]LCG-NH2; thioether N-13) . Reported pIC50? < 7.13
